assayNotes: pKa determination (Sirius GlpKa)
Type: physicochemical
appliedConditions: 25° C.; read-out: pKa (first of two basic centers)

{"compound": "CC1(C)OC(c2ccncc2)=C(c2ccc(OCc3cn4ncccc4n3)cc2)C1=O [Free Base]", "pKa": 3.7}

###

assayNotes: Thermodynamic aqueous solubility
appliedConditions: aqueous buffer, 25 °C, pH 1.2, simulated gastric fluid, thermodynamic from solid
attributeMeasured: solubility at 24 h

{"molecule": "CC1(C)OC(c2ccncc2)=C(c2ccc(OCc3cn4ncccc4n3)cc2)C1=O [Free Base]", "observed": "12.2 mg/mL"}
